target: VR1/TRPV1 receptor (Homo sapiens, UniProt Q8NER1); assay: IC50 (human) after pH stimulus; format: cell-based; settings: @ 0.1 μM; read-out: inhibition in percent, IC50 (human) after pH stimulus
Sequence (Q8NER1 whole entry): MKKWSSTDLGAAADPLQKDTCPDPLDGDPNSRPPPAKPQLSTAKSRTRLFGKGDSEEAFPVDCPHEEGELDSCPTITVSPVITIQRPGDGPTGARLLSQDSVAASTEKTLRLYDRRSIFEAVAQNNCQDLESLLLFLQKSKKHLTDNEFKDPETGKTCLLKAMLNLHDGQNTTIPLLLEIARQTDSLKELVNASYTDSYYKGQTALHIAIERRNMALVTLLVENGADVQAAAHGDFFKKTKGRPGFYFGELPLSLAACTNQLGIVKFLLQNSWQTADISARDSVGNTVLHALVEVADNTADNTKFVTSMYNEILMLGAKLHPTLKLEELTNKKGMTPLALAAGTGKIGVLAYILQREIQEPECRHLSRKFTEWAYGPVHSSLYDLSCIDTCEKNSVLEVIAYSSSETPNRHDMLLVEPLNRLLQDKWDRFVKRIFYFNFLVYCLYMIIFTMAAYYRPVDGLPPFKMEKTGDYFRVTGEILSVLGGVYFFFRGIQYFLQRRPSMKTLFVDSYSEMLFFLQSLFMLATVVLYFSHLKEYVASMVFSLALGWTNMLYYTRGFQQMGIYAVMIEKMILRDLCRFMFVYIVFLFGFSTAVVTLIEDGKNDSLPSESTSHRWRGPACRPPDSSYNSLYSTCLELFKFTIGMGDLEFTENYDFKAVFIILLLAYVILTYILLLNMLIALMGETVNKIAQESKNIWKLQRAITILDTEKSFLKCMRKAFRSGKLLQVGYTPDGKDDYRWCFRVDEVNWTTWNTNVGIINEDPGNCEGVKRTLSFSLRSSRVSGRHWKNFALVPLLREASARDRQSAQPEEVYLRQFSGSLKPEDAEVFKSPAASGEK
readout_kind: inhibition at 0.1 µM (%)
# unit: % | format: bare number

Solved entries:
CC(C(=O)NCc1ccc(C(F)(F)F)cc1OC1CCCCC1)c1ccc(NS(C)(=O)=O)c(F)c1 (stereo not drawn) = 39
CC(C)OC1CCN(c2nc(C(F)(F)F)ccc2CNC(=O)C(C)c2ccc(NS(C)(=O)=O)c(F)c2)CC1 (stereo not drawn) = 31
CC(C)COc1nc(C(C)(C)C)ccc1CNC(=O)C(C)c1ccc(NS(C)(=O)=O)c(F)c1 (stereo not drawn) = 28

Data request: # query: inhibition at 0.1 µM of entry CC1CCN(c2nc(C(C)(C)C)ccc2CNC(=O)C(C)c2ccc(NS(C)(=O)=O)c(F)c2)CC1 (stereo not drawn)
Data returned: 34

Data request: Requested read-out: inhibition at 0.1 µM. Entry: CC1CCN(c2nc(C(F)(F)F)ccc2CNC(=O)C(C)c2ccc(NS(C)(=O)=O)cc2)CC1 (stereo not drawn)
Data returned: 6

Data request: Which inhibition at 0.1 µM is listed for CC(C(=O)NCc1ccc(C(F)(F)F)cc1-c1cccc(Cl)c1)c1ccc(NS(C)(=O)=O)c(F)c1 (stereo not drawn) ?
Data returned: 25

Data request: # lookup: inhibition at 0.1 µM of COc1ccc(N2CCN(c3cc(C(F)(F)F)ccc3CNC(=O)C(C)c3ccc(NS(C)(=O)=O)c(F)c3)CC2)cc1 (stereo not drawn)
Data returned: 31

Data request: Could you share which inhibition at 0.1 µM value was measured for COc1ccc(-c2nc(C(F)(F)F)ccc2CNC(=O)C(C)c2ccc(NS(C)(=O)=O)c(F)c2)cc1F (stereo not drawn) ?
Data returned: 19

Data request: Field request: inhibition at 0.1 µM | item: CCCCOc1nc(C(F)(F)F)ccc1CNC(=O)C(C)c1ccc(NS(C)(=O)=O)c(C)c1 (stereo not drawn)
Data returned: 43

Data request: # inhibition at 0.1 µM lookup, item CC(C(=O)NCc1ccc(C(F)(F)F)cc1-c1cccc(F)c1)c1ccc(NS(C)(=O)=O)c(F)c1 (stereo not drawn)
Data returned: 15

Data request: What inhibition at 0.1 µM value was documented for this molecule, CC(C(=O)NCc1ccc(C(F)(F)F)nc1OC1Cc2ccccc2C1)c1ccc(NS(C)(=O)=O)c(F)c1 (stereo not drawn) ?
Data returned: 21

Data request: Tell me the measured inhibition at 0.1 µM of Cc1cc(C(C)C(=O)NCc2ccc(C(F)(F)F)nc2N2CCN(c3ccccc3)CC2)ccc1NS(C)(=O)=O (stereo not drawn) , please.
Data returned: 0

Data request: Recorded inhibition at 0.1 µM for CC(C(=O)NCc1ccc(C(F)(F)F)nc1-c1ccc2c(c1)OCCO2)c1ccc(NS(C)(=O)=O)c(F)c1 (stereo not drawn) , please?
Data returned: 17

Data request: What measured inhibition at 0.1 µM goes with Cc1cc(C(C)C(=O)NCc2ccc(C(F)(F)F)nc2N2CCC(C)CC2)ccc1NS(C)(=O)=O (stereo not drawn) ?
Data returned: 48

Data request: Reported inhibition at 0.1 µM, molecule CCCCCCOc1nc(C(F)(F)F)ccc1CNC(=O)C(C)c1ccc(NS(C)(=O)=O)c(C)c1 (stereo not drawn) : ____
Data returned: 63
